The origin of these recorded values is patent US20120165319A1.

- System: IL-1β, human peripheral blood mononuclear cells (PBMC)
- protocol text: PBMC cell assay: IL-1β assay with human PBMC or enriched adherent mononuclear cells, LPS-stimulated
- Format: cell-based
- condition set: Homo sapiens, PBMC, * = values obtained upon reassay
value kind: IC50 (nM)
Could you give me the number in nM? Just the number is fine.

Please look at O=C[C@H](CC(=O)O)NC(=O)CN1C(=O)[C@@H](NC(=O)c2ccccc2)CN(C(=O)CCc2ccccc2)c2ccccc21 [Compound 605a] and tell me its recorded IC50 on IL-1β, human peripheral blood mononuclear cells (PBMC).
2600

State measured IC50 of the compound COc1ccc(C(=O)N[C@H]2CCC(=O)N3CCC[C@@H](C(=O)N[C@H](C=O)CC(=O)O)N3C2=O)cc1F with IL-1β, human peripheral blood mononuclear cells (PBMC).
1200

State IC50 on IL-1β, human peripheral blood mononuclear cells (PBMC). Entry: O=C[C@H](CC(=O)O)NC(=O)[C@@H]1CCCN2CCC[C@H](NC(=O)c3ccccc3)C(=O)N12
950

Answer with IC50 of O=C[C@H](CC(=O)O)NC(=O)[C@@H]1CCCN2C(=O)CC[C@H](NC(=O)c3cc4ccccc4s3)C(=O)N12 measured for IL-1β, human peripheral blood mononuclear cells (PBMC).
1300

Output reported IC50 of the compound CC(=O)N1C[C@H](NC(=O)c2ccccc2)C(=O)N(CC(=O)N[C@H](C=O)CC(=O)O)c2ccccc21 [Compound 605d] on IL-1β, human peripheral blood mononuclear cells (PBMC).
5100

Report its IC50 with IL-1β, human peripheral blood mononuclear cells (PBMC) as the test system: CC(=O)N[C@H]1CCC(=O)N2CCC[C@@H](C(=O)N[C@H](C=O)CC(=O)O)N2C1=O [Compound 214c]
5000

Name the recorded IC50 of O=C[C@H](CC(=O)O)NC(=O)[C@@H]1CCCN2C(=O)CC[C@H](NC(=O)c3ccc4nn[nH]c4c3)C(=O)N12 , assay system IL-1β, human peripheral blood mononuclear cells (PBMC).
560

Provide IC50, tested on IL-1β, human peripheral blood mononuclear cells (PBMC), for CC(=O)Nc1cccc(C(=O)N[C@H]2CCC(=O)N3CCC[C@@H](C(=O)N[C@H](C=O)CC(=O)O)N3C2=O)c1 .
800

Consider the compound CC(C)C(=O)Nc1ccc(C(=O)N[C@H]2CCC(=O)N3CCC[C@@H](C(=O)N[C@H](C=O)CC(=O)O)N3C2=O)cc1 tested on IL-1β, human peripheral blood mononuclear cells (PBMC); state its IC50.
1550

System IL-1β, human peripheral blood mononuclear cells (PBMC). Read-out IC50. Item O=C[C@H](CC(=O)O)NC(=O)[C@@H]1CCCN2C(=O)CC[C@H](NC(=O)c3cccc(Cl)c3)C(=O)N12 . Report value.
400
